Tested on: HL-60
assay_notes: NCI tumour cell line growth inhibition, 48 h
The source made the active and inactive calls. Rule as the data show it: active = GI50 up to about 1.1 µM and inactive = higher.
Choose the fitting class; nothing outside active, inactive is accepted.

CCO/C(=N/S(=O)(=O)C(F)(F)F)N(C(C)C)C(C)C ... inactive

Record request — test call for `CCOC(=O)c1sc2nc1CSc1sc(=S)sc1SCc1nc(sc1C(=O)OCC)-c1nc(c(C(=O)OCC)s1)CSc1sc(=S)sc1SCc1nc-2sc1C(=O)OCC`
inactive

Record request — test call for `C=C(C=O)c1c2c(nc3ccccc13)C(=O)c1ccccc1C2=O`
active

Record request — test call for COc1cc(C(=O)OC2CC(C)=CC[C@@]3(C)CC[C@](O)(C(C)C)C23)ccc1O (stereo not given in full)
inactive

Record request — test call for `COc1cc(/C=C/c2ccc(Br)cc2)cc(OC)c1OC`
inactive

Record request — test call for `Cn1cc(-c2csc(-c3cn(C)c4ccccc34)n2)c2ccccc21`
inactive

Record request — test call for CC(C)(Br)C(Br)CC/C(=C/CBr)CBr.CC(C)(Br)C(Br)CC/C(=C\CBr)CBr (stereo not given)
active

Record request — test call for `Cc1cc2c(=O)cc(-c3ccc(C(=O)O)cc3)oc2c(C(=O)O)c1C`
inactive

Record request — test call for CC1NC(=O)C(C)C(c2ccccc2)N(N=O)C1c1ccccc1 (stereo not given)
inactive

Record request — test call for `C/C(=N\[N+](C)(C)C)c1ccc(C)c(C)c1`
inactive
